# CC50 at 24 h listing for each entry below
test: Cytotoxicity against mouse J774 cells assessed as reduction in cell viability after 24 hrs by resazurin fluorescence assay; format: cell-based
Measured Metric: CC50 at 24 h

O=C(c1cccc(-c2nnn3ccccc23)n1)c1cccc(-c2nnn3ccccc23)n1 ... ≥ 300 µM
O=C(c1cccc(C(=O)c2cccc(-c3nnn4ccccc34)n2)n1)c1cccc(-c2nnn3ccccc23)n1 ... ≥ 300 µM
O=C(c1cccc2c(-c3ccccc3)nnn12)c1cccc2c(-c3ccccc3)nnn12 ... ≥ 300 µM
CCCCCCCCCCCCCCCCOP(=O)([O-])OCC[N+](C)(C)C ... 164 µM
O=C(c1ccccn1)c1cccc2c(-c3ccccc3)nnn12 ... ≥ 300 µM
O=C(c1ccccn1)c1cccc(-c2nnn3ccccc23)n1 ... ≥ 300 µM
